- System: xMuLV
- test.method.notes: Kinetic study of detergents, TCID50 LRV in host cell culture fluid matrices
- Format: cell-based, xenotropic murine leukemia virus
- condition.set: BiTE ® #1, 15° C.
measured.property: LRV 30 min

## Task Value lookup for LRV 30 min; key = OC[C@H]1O[C@H](O[C@H]2[C@H](O)[C@@H](O)[C@H](OCCCCCC3CCCCC3)O[C@@H]2CO)[C@H](O)[C@@H](O)[C@@H]1O [CYMAL ®-5, 5-cyclohexylpentyl-β-D-maltoside]
## Result −0.06 ± 0.69

## Task Query (compound): CCCCCCCCCCOP(=O)([O-])OCC[N+](C)(C)C [Fos-Choline ®-10, n-decylphosphocholine] ; field requested: LRV 30 min
## Result 3.92 ± 0.67

## Task For the compound CCCCCCCS[C@@H]1O[C@H](CO)[C@@H](O)[C@H](O)[C@H]1O [N-heptyl-β-D-thioglucopyranoside, Heptyl-β-D-1-thioglucopyranoside] , what LRV 30 min is on record?
## Result ≥3.03 ± 0.18

## Task Consider the compound CCCCCCCCCCCCOCCOCCOCCOCCOCCOCCOCCOCCO [Anapoe C12E8] and give its measured LRV 30 min.
## Result ≥3.32 ± 0.35

---

Assignment: determine reported LRV BiTE ® for the given molecules.
- Tested on: xMuLV
- test.method.notes: Temperature-dependent study, TCID50 LRV in host cell culture fluid matrices
- Type: cell-based, xenotropic murine leukemia virus
- condition.set: 15° C., 30 minutes, 5× CMC
Field format: numeric only.

## Task What reported LRV BiTE ® corresponds to "CCCCCCCCCCOP(=O)([O-])OCC[N+](C)(C)C" on xMuLV?
## Result 3.92

## Task Form field - read-out: LRV BiTE ®; system: xMuLV; submitted item: OC[C@H]1O[C@H](O[C@H]2[C@H](O)[C@@H](O)[C@H](OCCCCCC3CCCCC3)O[C@@H]2CO)[C@H](O)[C@@H](O)[C@@H]1O [CYMAL ®-5, 5-cyclohexylpentyl-β-D-maltoside]
## Result −0.06

---

- Test system: xMuLV
- test.method.notes: Kinetic study of detergents, TCID50 LRV in host cell culture fluid matrices
- Assay type: cell-based, xenotropic murine leukemia virus
- condition.set: mAb #1, 15° C.
measured.property: LRV 30 min
Format: numeric value only, no unit, no commentary.

## Task Param readout = LRV 30 min; param system = xMuLV; param query = OC[C@H]1O[C@H](O[C@H]2[C@H](O)[C@@H](O)[C@H](OCCCCCC3CCCCC3)O[C@@H]2CO)[C@H](O)[C@@H](O)[C@@H]1O [CYMAL ®-5, 5-cyclohexylpentyl-β-D-maltoside] ; response: value
## Result 0.62

## Task Quick check: LRV 30 min on xMuLV, item "CCCCCCCCCCOP(=O)([O-])OCC[N+](C)(C)C" ?
## Result 3.97

Source listed as patent US12649907B2.
